Please go through the items and note down their growth.
System: NCI-H322M lung
PROTOCOL: NCI-60 one-dose screen, 48 h (100 = growth as untreated, 0 = no growth, -100 = all killed)
MEASUREMENT_PARAMETERS: 10 µM unless noted
Compounds without any hit were thinned out: in the full panel of roughly 83,000, 20% have a hit. Active and inactive are the calls of the source. How the source made its calls: active means growth percent below 10; inactive means the rest.

Some compounds with known growth results, for comparison:
> print(dat)
                                   compound  experimental.readout            result
1  O=C(O)C1CN(c2cccc(Cl)c2)N(c2cccc(Cl)c2)C1=O (stereo unspecified)                growth  83.9% (inactive)
2  COc1ccc(C2C(C#N)=C(N)Oc3c2sc2c(Br)cccc32)cc1 (stereo unspecified)                growth    30% (inactive)

Parameters: items (list). Returns: growth for each item.
1. Brc1ccc(-c2cnc3nonc3n2)cc1
2. Nc1n[nH]c2ccc([C@@H]3Nc4cc5[nH]ncc5cc4[C@H]4C5CCC(C5)[C@@H]34)cc12 (stereo partly specified)
3. COc1cc(Nc2c3ccc(Cl)cc3nc3ccc(OC)cc23)c2ncccc2c1
4. COc1ccc(Cl)cc1Nc1nc(C(F)(F)F)ccc1C(=O)N/N=C/c1ccccc1Cl
5. CCCCCCC(=O)Nc1ncc(Cc2ccc(C)cc2)s1

Resp:
1. 94% (inactive)
2. 43% (inactive)
3. 47.9% (inactive)
4. 1.34% (active)
5. 58.4% (inactive)

Parameters: items (list). Returns: growth for each item.
1. CCCCCCCCn1ccc2cc(NC(=O)Cn3cc(CN4CCOCC4)nn3)ccc21
2. COc1cc(C2=NN(C(C)=O)C(c3ccc(N(C)C)cc3)C2)cc(OC)c1OC (stereo unspecified)

Resp:
96.8% (inactive)
82.7% (inactive)

Parameters: items (list). Returns: growth for each item.
1. CC(=O)N(Cc1ccccc1)c1nc2ccc(O)c(CN(C)C)c2s1
2. Cc1ccc(-c2csc(NC(=O)N3CCN(c4cc5c(cc4F)c(=O)c(C(=O)O)cn5C4CC4)CC3)n2)cc1
3. COc1cc(C(=O)c2c(N)ncn2-c2ccccc2)cc(OC)c1OC
4. NNC(=S)N/N=C/c1ccccn1
5. COc1ccc(C/C(C)=C(/c2ccc(OCCN3CCCCCC3)cc2)c2ccc(OC(=O)NCc3ccccc3)cc2)cc1
6. CCOC(=O)c1n[nH]n2c1nc(=O)c1cnn(C)c12
7. CCOC(=O)Cn1c(=O)c2c3ccccc3n(C)c2n2nnc(-c3ccccc3)c12

Resp:
1. 103% (inactive)
2. 9.12% (active)
3. 104% (inactive)
4. 46.2% (inactive)
5. 93.2% (inactive)
6. 99.4% (inactive)
7. 120% (inactive)

* * *

Tested on: K-562 leukemia
PROTOCOL: NCI-60 one-dose screen, 48 h
MEASUREMENT_PARAMETERS: 10 µM unless noted
Protocol: Cells are grown in 96 well plates and exposed to the test compound for 48 hours. Compounds are tested at a single concentration, which is 10^-5 M for most compounds. The reported endpoint is percent growth (GI% or GIPRCNT), where numbers from 0 - 100% represent growth inhibition, and numbers from -100% - 0 represent cell death. For example, a value of 40 represents 60% growth inhibition. A value of 0 means no net growth occurred over the course of the experiment. […]
About 83,000 compounds went through this panel and 20% of them were active in at least one assay; those are over-represented in the sample as a whole. Calls of active or inactive are those of the source. The calls were made as follows: active = growth percent below 10; inactive = the rest.
The categories you may choose from are active, inactive

MOLECULE	CATEGORY_LABEL
CCN(CC)CCOc1nc2c3ccc(Cl)cc3nn2c2ccccc12	active
CCC(C)Nc1ccc(NC(C)CC)cc1 (centres undefined)	inactive
NC(=O)c1ccc(NC(=O)c2oc3ccccc3c2-c2cnn(-c3ccccc3)c2)cc1	inactive
COc1cc(-c2nc(SCCC(C)C)nc(N3CCOCC3)c2C#N)cc(OC)c1OC	inactive
O=C(/C=C/C12c3ccccc3C(c3ccccc31)C1C(=O)NC(=O)C12)c1ccc(F)cc1 (centres undefined)	active
COc1ccc(NC(=O)c2sc3nc4c(cc3c2N)CCCC4)cc1	active
COc1cc(/C=N/Nc2ccccc2F)cc(OC)c1OC	inactive
C=C1C(=O)O[C@H]2[C@H]1CC/C(COC(=O)NCCCCCCCCNC(=O)OC/C1=C/CC[C@@]3(C)O[C@H]3[C@H]3OC(=O)C(=C)[C@@H]3CC1)=C\CC[C@@]1(C)O[C@@H]21	active

Req: For COc1ccc(/C(C)=C(\c2ccc(Cl)cc2)c2ccc(OCCN3CCCC3)cc2)cc1 , what call appears in the results of this test?
Resp: active
